Hi there, I'd appreciate the recorded pIC50 for every entry that follows.
Target: Activated CDC42 kinase 1 (Homo sapiens)
Sequence (Q07912 whole entry): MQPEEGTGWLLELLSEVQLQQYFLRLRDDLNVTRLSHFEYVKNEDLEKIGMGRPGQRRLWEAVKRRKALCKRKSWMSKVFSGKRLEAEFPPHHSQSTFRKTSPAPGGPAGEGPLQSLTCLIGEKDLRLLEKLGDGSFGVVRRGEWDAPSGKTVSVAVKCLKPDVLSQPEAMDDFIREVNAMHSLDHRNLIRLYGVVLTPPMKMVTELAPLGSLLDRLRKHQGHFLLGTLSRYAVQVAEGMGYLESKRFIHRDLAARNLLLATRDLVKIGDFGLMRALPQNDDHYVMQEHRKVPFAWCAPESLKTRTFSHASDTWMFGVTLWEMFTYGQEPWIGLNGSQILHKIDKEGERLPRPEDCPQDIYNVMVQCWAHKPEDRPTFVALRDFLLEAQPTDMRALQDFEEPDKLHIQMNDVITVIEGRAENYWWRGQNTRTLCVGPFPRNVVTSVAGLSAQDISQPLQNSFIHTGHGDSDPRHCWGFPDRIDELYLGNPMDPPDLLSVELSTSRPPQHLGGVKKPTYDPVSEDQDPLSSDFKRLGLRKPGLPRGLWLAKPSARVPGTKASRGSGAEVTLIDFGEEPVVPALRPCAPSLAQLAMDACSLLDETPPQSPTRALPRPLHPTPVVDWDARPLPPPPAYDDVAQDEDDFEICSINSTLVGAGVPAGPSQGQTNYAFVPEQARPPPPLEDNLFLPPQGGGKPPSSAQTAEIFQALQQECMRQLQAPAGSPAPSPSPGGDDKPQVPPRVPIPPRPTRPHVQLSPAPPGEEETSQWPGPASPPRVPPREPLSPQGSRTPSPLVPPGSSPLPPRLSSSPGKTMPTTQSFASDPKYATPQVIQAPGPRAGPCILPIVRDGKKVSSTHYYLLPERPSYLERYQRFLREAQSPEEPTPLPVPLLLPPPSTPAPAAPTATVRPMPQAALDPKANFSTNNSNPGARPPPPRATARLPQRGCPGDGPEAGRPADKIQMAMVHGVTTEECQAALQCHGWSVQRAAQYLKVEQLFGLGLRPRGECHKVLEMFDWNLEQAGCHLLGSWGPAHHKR
Experiment: Inhibition of flag-tagged ACK1 autophosphorylation expressed in human 293 cells
Numbers only, as −log10 of the molar value.

Some compounds with known pIC50 results, for comparison:
INSERT INTO assay_data (compoundsmiles, testedsystem, measurement) VALUES
  ('CN(C)CCCn1nc(Nc2c(Cl)cccc2Cl)c2cnc(Nc3ccccc3)nc21', 'Activated CDC42 kinase 1 (Homo sapiens)', 7.70),
  ('COC(C)(C)CCn1nc(Nc2c(C)cccc2C)c2cnc(Nc3ccc(OCCN4CCCC4)c(F)c3)nc21', 'Activated CDC42 kinase 1 (Homo sapiens)', 7.70),
  ('COC(C)(C)CCn1nc(Nc2c(C)cccc2C)c2cnc(Nc3ccc(OCCCN4CCCCC4)c(F)c3)nc21', 'Activated CDC42 kinase 1 (Homo sapiens)', 7.22);

Lab note: each compound below needs its pIC50 filled in.
1. O=C(Cn1nc(Nc2c(Cl)cccc2Cl)c2cnc(Nc3ccccc3)nc21)N1CCOCC1
2. Cc1cccc(C)c1Nc1nn(CCCN2CCCC2)c2nc(Nc3ccccc3)ncc12
3. COC(C)(C)CCn1nc(Nc2c(C)cccc2C)c2cnc(Nc3ccc(N4CCN(C)CC4)cc3)nc21
4. ON1CCN(CCn2nc(Nc3c(Cl)cccc3Cl)c3cnc(Nc4ccccc4)nc32)CC1

Completion:
[6.85, 6.52, 7.70, 7.52]

Parameters: items (list). Returns: pIC50 for each item.
1. COC(C)(C)CCn1nc(Nc2c(C)cccc2C)c2cnc(Nc3ccccc3)nc21
2. COC(C)(C)CCn1nc(Nc2c(Cl)cccc2Cl)c2cnc(Nc3ccc(N4CCNCC4)cc3)nc21
3. CN(C)[C@@H]1CCN(CCn2nc(Nc3c(Cl)cccc3Cl)c3cnc(Nc4ccccc4)nc32)C1
4. OC[C@H](O)CCn1nc(Nc2c(Cl)cccc2Cl)c2cnc(Nc3ccccc3)nc21
5. Cc1cccc(C)c1Nc1nn(CCCN(C)C)c2nc(Nc3ccccc3)ncc12

Completion:
1. 7.70
2. 8.00
3. 7.70
4. 7.70
5. 7.40

---

For each entry below, report its Vd value.
Assay: Volume of distribution at steady state in Sprague-Dawley rat at 0.5 mg/kg, iv
Assay type: ADME, organism-based
Design: dose 0.5 mg/kg, route intravenous
Settings: in vivo, read-out: Vdss
Numbers only, in L/kg.

INSERT INTO assay_data (compoundsmiles, valuekind, measurement) VALUES
  ('COC(C)(C)CCn1nc(Nc2c(Cl)cccc2Cl)c2cnc(Nc3ccc(N4CCNCC4)cc3)nc21', 'Vd', 15.4),
  ('COC(C)(C)CCn1nc(Nc2c(C)cccc2C)c2cnc(Nc3ccc(N4CCNCC4)cc3)nc21', 'Vd', 20.3),
  ('COC(C)(C)CCn1nc(Nc2c(C)cccc2C)c2cnc(Nc3ccc(OCCCN4CCCCC4)c(F)c3)nc21', 'Vd', 7.5);

Attention now shifts to the item below.
Prompt: Vd lookup needed for "COC(C)(C)CCn1nc(Nc2c(Cl)cccc2Cl)c2cnc(Nc3ccc(OCCN4CCCC4)c(F)c3)nc21" , thanks.
Completion: 7.7

---

Experiment: AUC in Sprague-Dawley rat at 0.5 mg/kg, iv
Type: ADME, organism-based
Set-up: dose 0.5 mg/kg, route intravenous
Details: plasma
valueKind: AUC

Example entries and their recorded answers appear below.
INSERT INTO measurements (compoundsmiles, measurement) VALUES
  ('COC(C)(C)CCn1nc(Nc2c(Cl)cccc2Cl)c2cnc(Nc3ccc(N4CCNCC4)cc3)nc21', '117 ng·h/mL'),
  ('COC(C)(C)CCn1nc(Nc2c(C)cccc2C)c2cnc(Nc3ccc(OCCCN4CCCCC4)c(F)c3)nc21', '148 ng·h/mL'),
  ('COC(C)(C)CCn1nc(Nc2c(C)cccc2C)c2cnc(Nc3ccc(N4CCNCC4)cc3)nc21', '104 ng·h/mL');

We next turn to a different compound, shown below.
Prompt: What does the record list as AUC for "COC(C)(C)CCn1nc(Nc2c(Cl)cccc2Cl)c2cnc(Nc3ccc(OCCN4CCCC4)c(F)c3)nc21" ?
Completion: 174 ng·h/mL
